Assay: compounds binding Alexa647 anti-His antibody – biochemical, small-molecule microarray, 635 nm fluorescence, artefact control for SMM control protein annotation, primary screen (AID 1128);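 further: score merges feature fluorescence with signal-to-noise for each printed compound spot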
Settings: higher = more signal

MOLECULE | composite z-score
Cc1ccccc1C(O)C1C=CC2C(=O)N(C)C(=O)C2N1Nc1ccc([N+](=O)[O-])cc1[N+](=O)[O-] (stereo unspecified) | 0.509
C[C@]12C(=O)N(CCCCCO)[C@@H]3C(=O)N(c4ccc(Cl)cc4)CC=CC31O[C@@H]1/C=C\CCCOC(=O)C12 (stereo partly specified) | -0.39
COCCOC(=O)N1C(=O)[C@@]2(c3ccccc31)[C@H](c1ccc(OCCO)cc1)N1[C@H](c3ccccc3)[C@H](c3ccccc3)OC(=O)[C@H]1[C@@H]2C(=O)NC[C@H](O)c1ccccc1 | 1.95
COC(=O)[C@@]1(Cc2ccc(OC)cc2)[C@H]2c3cc(C(=O)N(C)C)n(Cc4cc(F)c(F)c(F)c4)c3C[C@H]2CN1C(=O)c1ccccc1 | 1
O=C1C[C@@](C(=O)O)(c2ccc([N+](=O)[O-])cc2)[C@@H](c2ccc(CO)cc2)N1CC12CC3CC(CC(C3)C1)C2 | 1.2
C=CCNC(=O)[C@H]1[C@@H]2C(=O)O[C@@H](c3ccccc3)[C@@H](c3ccccc3)N2[C@@H](c2ccc(O)cc2)[C@]12C(=O)N(C(=O)OCCOC)c1ccc(C#CC3(O)CCCCCC3)cc12 | 1.23

---

Measured z-score of individual entries
Assay: budding yeast growth changes without added modifier – OD600, strain BY4716, 24 h, basal condition, primary screen (AID 1173)
Conditions: S. cerevisiae BY4716 growth, OD600, 24 h; higher = more signal, called active from +8 up or from −8 down
PARAMETER: z-score

MOLECULE | VALUE_MEASURED
CCOC(=O)C[C@H]1[C@H](OC(=O)c2ccc(C(=O)c3ccccc3)cc2)[C@@H](NC(=O)C2CCCCC2)c2cc(OCCCO)ccc2N1C(=O)Cc1ccc(OC)cc1 | -0.741
Cc1ccc(N2C(=O)c3ccccc3[C@](C)(C(=O)NC(C)C)[C@@H]2c2ccc(CO)cc2)nc1 | 0.201
NC(=O)NCC#Cc1ccc2c(c1)[C@]1(C(=O)N2)[C@H](c2ccc(OCCO)cc2)N2[C@H](c3ccccc3)[C@H](c3ccccc3)OC(=O)[C@H]2[C@@H]1C(=O)N1CCCCCCC1 | 1.64
COCCOC(=O)N1C(=O)[C@@]2(c3cc(C#CCNC(N)=O)ccc31)[C@H](c1ccc(OCCO)cc1)N1[C@H](c3ccccc3)[C@H](c3ccccc3)OC(=O)[C@H]1[C@@H]2C(=O)N1CCN(c2ncccn2)CC1 | 1.51
CN1C(=O)C2C=CC(C(O)c3cccc4ccccc34)N(NC(=O)OC(C)(C)C)C2C1=O (stereo unspecified) | -3.8
COC(=O)[C@@]1(Cc2ccccc2)[C@H]2c3cc(C(=O)N(C)C)n(Cc4ccccn4)c3C[C@H]2CN1C(=O)c1ccccc1 | 1.6

---

Molecular target: Follistatin (Homo sapiens) (UniProt P19883)
Sequence (P19883 whole entry, looked up): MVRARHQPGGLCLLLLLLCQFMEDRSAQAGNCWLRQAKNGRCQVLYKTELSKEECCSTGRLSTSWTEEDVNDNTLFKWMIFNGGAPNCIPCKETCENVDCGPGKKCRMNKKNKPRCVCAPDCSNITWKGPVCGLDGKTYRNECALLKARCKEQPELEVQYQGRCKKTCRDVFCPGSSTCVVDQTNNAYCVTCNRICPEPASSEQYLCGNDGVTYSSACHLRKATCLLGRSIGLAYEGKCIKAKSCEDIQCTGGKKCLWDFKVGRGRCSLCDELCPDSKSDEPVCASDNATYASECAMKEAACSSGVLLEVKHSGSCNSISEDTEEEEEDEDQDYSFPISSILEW
Assay: FST protein binding to printed compounds – biochemical, small-molecule microarray, 635/667 nm fluorescence, primary screen (AID 1132)
Details: 635 nm fluorescence, higher = more signal
PARAMETER: composite z-score

SMILES_RECORD | VALUE_MEASURED
COC(=O)[C@@]1(Cc2ccccc2)[C@H]2c3cc(C(=O)N4CCCC4)n(Cc4ccc(OC(F)(F)F)cc4)c3C[C@H]2CN1C(=O)c1ccccc1 | 0.575
C=CCOC(=O)[C@@H]1[C@H]2C(=O)O[C@H](c3ccccc3)[C@H](c3ccccc3)N2[C@H](c2ccc(OCCOC(=O)[C@@H]3C[C@@H]4C(=O)N5CCC[C@H]5C(=O)N4[C@@H]3c3cccc(OCCO)c3)cc2)[C@@]12C(=O)Nc1ccc(I)cc12 | 1.43
COc1cc2c(cc1OC)CN(C(=O)[C@@H]1[C@H]3C(=O)O[C@H](c4ccccc4)[C@H](c4ccccc4)N3[C@H](c3ccc(OCCO)cc3)[C@@]13C(=O)Nc1ccc(C#CCCO)cc13)CC2 | 1.36
COCCOC(=O)N1C(=O)[C@@]2(c3cc(C#Cc4ccc(OC)cc4)ccc31)[C@H](c1ccc(OCCO)cc1)N1[C@H](c3ccccc3)[C@H](c3ccccc3)OC(=O)[C@H]1[C@@H]2C(N)=O | 1.41
COCCCNC(=O)[C@@]1(C)c2ccccc2C(=O)N(c2ccc(C)cn2)[C@H]1c1ccc(CO)cc1 | -0.0423

---

Listed compounds paired with reported composite z-score
Assay: probe aInhba binding on compound microarray – biochemical, small-molecule microarray, 635/667 nm fluorescence, primary screen (AID 1148);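 further: score merges 667nm spot fluorescence with signal-to-noise for antibody binding to printed compounds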
Conditions: higher = more signal
PARAMETER: composite z-score

COMPOUND | PARAMETER | VALUE_MEASURED
[N-]=[N+]=NCc1ccccc1[C@H]1OC(c2ccc(OCCCO)cc2)=N[C@@]1(Cc1ccccc1N=[N+]=[N-])C(=O)N1CCCCC1 | composite z-score | 0.277
COCCCNC(=O)[C@@]1(Cc2ccccc2)COC(c2ccc(OCCCO)cc2)=N1 | composite z-score | 0.263
CC[C@@H]1[C@@H]2C3C(=O)N(CC)C(=O)C3CC(=O)[C@@H]2[C@H](c2ccc(C)cc2)N1S(=O)(=O)c1ccc(C)cc1 (stereo partly drawn) | composite z-score | -0.0523
C=C[C@H](C)[C@H](OC(=O)Nc1ccc(SC)cc1)c1ccc(O)c2ccccc12 | composite z-score | -0.154
O=C1O[C@H](c2ccccc2)[C@H](c2ccccc2)N2[C@H]1[C@@H](C(=O)N1CCN(c3ncccn3)CC1)[C@]1(C(=O)Nc3ccc(C#CCCO)cc31)[C@H]2c1ccccc1OCCO | composite z-score | 0.0714
COCC(=C=CC[C@@H](O)c1ccccc1OCCO)C[C@@H](O)COCc1ccccc1 | composite z-score | 0.799
CC1CC/C=C\[C@H]2OC34C=CCN(Cc5ccccc5)C(=O)[C@H]3N(CCO)C(=O)[C@@H]4C2C(=O)O1 (stereo partly drawn) | composite z-score | -0.176
COc1ccc(CCNC(=O)[C@@H]2c3ccccc3C(=O)N(Cc3ccccc3)[C@H]2c2ccc(CO)cc2)cc1 | composite z-score | -0.0195
NC(=O)[C@@H]1[C@H]2C(=O)O[C@H](c3ccccc3)[C@H](c3ccccc3)N2[C@H](c2ccccc2OCCO)[C@@]12C(=O)Nc1ccc(C#CCCO)cc12 | composite z-score | -0.0407
CN(C)CCCCNC(=O)[C@H]1C[C@H]2C(=O)N[C@@H](CCCC[N+](C)(C)C)C(=O)N2[C@H]1c1cccc(OCCO)c1 | composite z-score | 0.0228
C=C(COC)/C(=C/C[C@@H](OC(=O)c1ccncc1)c1cccc(OCCO)c1)c1cc(C(=O)OC)ccc1OC | composite z-score | 0.709
COc1ccc(C#Cc2ccc3c(c2)[C@]2(C(=O)N3)[C@H](C(=O)O)[C@H]3C(=O)O[C@H](c4ccccc4)[C@H](c4ccccc4)N3[C@@H]2c2ccc(OCCO)cc2)cc1 | composite z-score | 0.399
C=CCNC(=O)[C@H]1[C@@H]2C(=O)O[C@@H](c3ccccc3)[C@@H](c3ccccc3)N2[C@@H](c2ccc(OCCO)cc2)[C@]12C(=O)N(C(=O)OCCOC)c1ccc(C#CC3=CCCCC3)cc12 | composite z-score | 0.18
COc1ccc(C(=O)Nc2ccc(CN3C(=O)[C@]4(O[C@H](CCn5cc([C@H](O)c6ccccc6)nn5)[C@@H]([Si](C)(C)c5ccc(OC)cc5)[C@@H]4C)c4ccccc43)cc2)cc1 | composite z-score | -0.0044
CC(C)C(CO)N1C(=O)[C@@H]2[C@H]3C(=O)OCC=C[C@H]3OC23C=CCN(Cn2nnc4ccccc42)C(=O)[C@@H]13 (stereo partly drawn) | composite z-score | -0.231
C=C(/C(=C/C[C@@H](OC(=O)c1ccncc1)c1ccccc1OCCO)c1cnc2ccccc2c1)C(C)C | composite z-score | 0.421
CCOC(=O)C[C@H]1[C@H](OC(=O)Cc2ccc3c(c2)OCO3)[C@@H](NC(=O)c2ccccc2)c2cc(OCCCO)ccc2N1C(=O)c1ccc2ccccc2n1 | composite z-score | -0.0418
CCCc1cc2c(n1Cc1ccc(OC)cc1)C(C)C1CN(C(=O)c3ccccc3)C(C)(C(=O)OC)C21 (stereo not drawn) | composite z-score | 0.297
O=c1c2ccc(Br)cc2nc(-c2ccccc2)n1Cc1cccc(O)c1 | composite z-score | 0.229
COc1cccc(C)c1NC(=O)O[C@H]1[C@H](OC(=O)Nc2ccccc2)[C@H](OC(=O)Nc2ccccc2)[C@@H](OC)O[C@@H]1CO | composite z-score | 0.0301
N#Cc1ccc(NN2C(C(O)c3ccco3)C=CC3C(=O)N(c4ccccc4)C(=O)C32)cc1 (stereo not drawn) | composite z-score | 0.0183
COc1ccc(C(=O)Nc2ccc3c(c2)[C@]2(O[C@@H](CCO)[C@H]([Si](C)(C)c4ccc(OC)cc4)[C@H]2C)C(=O)N3Cc2ccccc2)cc1 | composite z-score | -0.0209
COC(=O)[C@@]1(Cc2ccccc2)[C@H]2c3cc(C(=O)N4CCCC4)n(CCO)c3C[C@H]2CN1C(=O)c1ccccc1 | composite z-score | 1.4
CN(C)C(=O)[C@@]1(CCC(=O)OC(C)(C)C)N=C(c2ccc(OCCCO)cc2)O[C@H]1c1ccccc1N=[N+]=[N-] | composite z-score | 0.277
CC(C)NC(=O)[C@@]1(Cc2ccccc2I)c2ccccc2C(=O)N(Cc2ccccc2C(F)(F)F)[C@H]1c1ccc(CO)cc1 | composite z-score | 0.225
COCCOC(=O)N1C(=O)[C@@]2(c3cc(C#Cc4ccc(OC)cc4)ccc31)[C@H](c1ccc(OCCO)cc1)N1[C@H](c3ccccc3)[C@H](c3ccccc3)OC(=O)[C@H]1[C@@H]2C(N)=O | composite z-score | 0.187
NCCCCCCNC(=O)[C@H]1C[C@H]2C(=O)N3CCC[C@H]3C(=O)N2[C@H]1c1ccc(O)cc1 | composite z-score | 0.0047
COC(=O)[C@@]1(Cc2ccc(OC)cc2)[C@H]2c3cc(C(=O)N(C)C)n(CCF)c3C[C@H]2CN1C(=O)c1ccccc1 | composite z-score | 0.515
